System: Plasmodium falciparum
method: Antimalarial activity against chloroquine-resistant Plasmodium falciparum W2MEF infected in human type A+ erythrocytes after 48 hrs by [3H]-hypoxanthine incorporation assay
Type: functional, organism-based
pIC50: −log10 of the molar value.
assay-metric: pIC50

Observed pIC50, Plasmodium falciparum, `Clc1ccc2c(N[C@@H]3CCCC[C@H]3Nc3ccnc4cc(Cl)ccc34)ccnc2c1` : 7.89 to 8.40

----------
System: Plasmodium falciparum
method: Antimalarial activity against chloroquine-resistant Plasmodium falciparum FCR-3/Gambia infected in human type A+ erythrocytes after 48 hrs by [3H]-hypoxanthine incorporation assay
Format: functional, organism-based
assay-metric: IC50

Observed IC50, Plasmodium falciparum, CC1(C)COC2(CCC(N[C@H]3CC[C@H](Nc4ccnc5cc(Cl)ccc45)CC3)CC2)OO1 (stereo partly specified) : 7 to 24 nM
